Data provenance: the supplement of paper PMC10307832

tested on: NCI-H838; experiment: relative viability (nuclei count vs DMSO), 5 days (fraction); higher = more cells survive; conditions: first compound 0.1 µM
Below is a list of entries, each paired with its recorded relative viability value.
Simply state the number, no unit and no words.

O=c1cc(N2CCOCC2)oc2c(-c3cccc4c3sc3ccccc34)cccc12 + O=C(c1cc(Cc2n[nH]c(=O)c3ccccc23)ccc1F)N1CCN(C(=O)C2CC2)CC1 [Olaparib] (partner 8 µM) | 0.851
CCN(CC)CCCCNc1ncc2cc(-c3cc(OC)cc(OC)c3)c(NC(=O)NC(C)(C)C)nc2n1 + Cc1nc(NC(=O)N2CCC[C@H]2C(N)=O)sc1-c1ccnc(C(C)(C)C(F)(F)F)c1 [Alpelisib] (partner 2 µM) | 0.996
O=c1cc(N2CCOCC2)oc2c(-c3cccc4c3sc3ccccc34)cccc12 + Cc1nc(NC(=O)N2CCC[C@H]2C(N)=O)sc1-c1ccnc(C(C)(C)C(F)(F)F)c1 [Alpelisib] (partner 2 µM) | 1.03
O=c1cc(N2CCOCC2)oc2c(-c3cccc4c3sc3ccccc34)cccc12 + Nc1nc2[nH]cc(CCc3ccc(C(=O)N[C@@H](CCC(=O)O)C(=O)O)cc3)c2c(=O)[nH]1 [Pemetrexed] (partner 0.2 µM) | 0.241
O=c1cc(N2CCOCC2)oc2c(-c3cccc4c3sc3ccccc34)cccc12 + CS(=O)(=O)CCNCc1ccc(-c2ccc3ncnc(Nc4ccc(OCc5cccc(F)c5)c(Cl)c4)c3c2)o1 [Lapatinib] (partner 2 µM) | 0.984

For the next question, use this compound.
Noted relative viability for CCN(CC)CCCCNc1ncc2cc(-c3cc(OC)cc(OC)c3)c(NC(=O)NC(C)(C)C)nc2n1 + CS(=O)(=O)CCNCc1ccc(-c2ccc3ncnc(Nc4ccc(OCc5cccc(F)c5)c(Cl)c4)c3c2)o1 [Lapatinib] (partner 2 µM) , tested on NCI-H838: 1.2
